# tested-system: dGA (tau 297-390) (human, UniProt P10636 614-707)
# Sequence (P10636 614-707 limits assumed): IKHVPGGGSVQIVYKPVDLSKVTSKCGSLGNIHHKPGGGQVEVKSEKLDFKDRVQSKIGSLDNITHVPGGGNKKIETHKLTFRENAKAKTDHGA
# protocol-text: SPR, scAb captured, tau analyte
property-name: kon (M⁻¹ s⁻¹)
Value expressed in M⁻¹ s⁻¹; do not type the unit.

# kon lookup, item S1D12 scAb (scFv, not shown: small tags and cut ends, scAb) scFv: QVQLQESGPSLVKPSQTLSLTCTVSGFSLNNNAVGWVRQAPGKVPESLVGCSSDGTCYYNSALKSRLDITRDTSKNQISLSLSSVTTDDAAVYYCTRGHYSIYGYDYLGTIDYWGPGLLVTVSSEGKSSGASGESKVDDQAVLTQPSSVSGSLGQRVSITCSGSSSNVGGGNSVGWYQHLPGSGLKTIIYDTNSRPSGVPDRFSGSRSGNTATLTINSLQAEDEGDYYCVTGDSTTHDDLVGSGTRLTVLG 1.21e+06
